Entries and their fold change of Histamine concentration
Test system: Klebsiella aerogenes DSM 30053
test summary: fold change of Histamine concentration vs plate DMSO controls (fold change (ratio)); higher = more amine produced, active = hit call of the paper (significant change in both replicates, either direction)
assay conditions: incubation time: 27 h, anaerobic, 37 °C
Where a name gives a salt, the structure may show the parent alone.

molecule: Oc1cc(O)c2c(c1)O[C@H](c1ccc(O)c(O)c1)[C@@H](O)C2 [Cianidanol] (20 µM)
fold change of Histamine concentration: 1.03

molecule: CC[N+](C)(C)c1cccc(O)c1 [Edrophonium chloride] (20 µM)
fold change of Histamine concentration: 1.07

molecule: CN1CCCC(CC2c3ccccc3Sc3ccccc32)C1 (stereo not drawn) [Metixene hydrochloride] (20 µM)
fold change of Histamine concentration: 0.998

molecule: O=C(O)COC(=O)Cc1ccccc1Nc1c(Cl)cccc1Cl [Aceclofenac] (20 µM)
fold change of Histamine concentration: 0.97

molecule: Nc1ccccc1S(N)(=O)=O [o-Sulfanilamide] (20 µM)
fold change of Histamine concentration: 1.02

molecule: C[C@H](O)C(=O)Nc1c(I)c(C(=O)NC(CO)CO)c(I)c(C(=O)NC(CO)CO)c1I [Iopamidol] (20 µM)
fold change of Histamine concentration: 1.04

molecule: CC1(C)S[C@@H]2[C@H](NC(=O)Cc3ccccc3)C(=O)N2[C@H]1C(=O)O [Benzylpenicillin sodium] (20 µM)
fold change of Histamine concentration: 1.06

molecule: CCCN(CCC)S(=O)(=O)c1ccc(C(=O)O)cc1 [Probenecid] (20 µM)
fold change of Histamine concentration: 0.92

* * *

Test system: Klebsiella aerogenes DSM 30053
test summary: growth (OD595) fold change vs plate DMSO controls (fold change (ratio)); higher = more growth
assay conditions: incubation time: 27 h, anaerobic, 37 °C
Where a name gives a salt, the structure may show the parent alone.
Measured growth, listed per entry.

molecule: O=C(O)c1cccnc1 [Niacin] (20 µM)
growth: 1.01

molecule: CC(C)(O)c1ccccc1CC[C@@H](SCC1(CC(=O)O)CC1)c1cccc(/C=C/c2ccc3ccc(Cl)cc3n2)c1 [Montelukast] (20 µM)
growth: 1.02

molecule: Oc1c(Cl)cc(Cl)cc1Sc1cc(Cl)cc(Cl)c1O [Bithionol] (20 µM)
growth: 1.01

molecule: CCOC(=O)OC(C)OC1=C(C(=O)Nc2ccccn2)N(C)S(=O)(=O)c2ccccc21 (stereo not drawn) [Ampiroxicam] (20 µM)
growth: 1.03

molecule: CC1CC(OC(=O)C(O)c2ccccc2)CC(C)(C)C1 (stereo not drawn) [Cyclandelate] (20 µM)
growth: 1.04

molecule: Cc1scc2c1N(C(=O)CN1CCN(C)CC1)c1ccccc1NC2=O [Telenzepine dihydrochloride] (20 µM)
growth: 1

molecule: Cc1[nH]cnc1CN1CCc2c(c3ccccc3n2C)C1=O [Alosetron hydrochloride] (20 µM)
growth: 1.02

molecule: COc1c(N2CCNC(C)C2)c(F)cc2c(=O)c(C(=O)O)cn(C3CC3)c12 (stereo not drawn) [Gatifloxacin] (20 µM)
growth: 0.235

* * *

Listing: fold change of Tryptamine concentration of selected molecules
Test system: Clostridium sporogenes DSM 1664
test summary: fold change of Tryptamine concentration vs plate DMSO controls (fold change (ratio)); higher = more amine produced, active = hit call of the paper (significant change in both replicates, either direction)
assay conditions: incubation time: 27 h, anaerobic, 37 °C
measured property: fold change of Tryptamine concentration

molecule: CN(C)CCOC1=Cc2ccccc2Sc2ccc(Cl)cc21 [Zotepine] (20 µM)
assay value: 1.01

molecule: CC(C)NC[C@H](O)COc1ccc(CC(N)=O)cc1 [(S,-) Atenolol] (20 µM)
assay value: 0.0316

molecule: CC(=O)O[C@]1(C(C)=O)CC[C@H]2[C@@H]3C=C(C)C4=CC(=O)CC[C@]4(C)[C@H]3CC[C@@]21C [Megestrol acetate] (20 µM)
assay value: 1.05

molecule: Cc1c(O)c(=O)n(-c2ccccc2)n1C [Antipyrine, 4-hydroxy] (20 µM)
assay value: 0.985

Values from the supplement of paper PMC12494721
